test system: THP-1 cells; experiment: THP-1 cell assay: LPS-stimulated pSer78-Hsp27 ELISA; format: cell-based; conditions: Homo sapiens, PMA-differentiated THP-1 cells, compound 60 min before 20 ng/mL LPS for 30 min
pIC50: −log10 of the molar value.
Entries and their pIC50 values follow.

Here are 5 compounds together with their reported answers.
INSERT INTO results (compound, experimental_endpoint, test_value) VALUES
  ('CC(C)(N)[C@@H]1CN(c2ccc3c(c2)Cn2cc(-c4ccc(C#N)cc4)cc2-c2nccn2-3)C(=O)O1 (single isomer, unassigned)', 'pIC50', '> 7.30'),
  ('CN1CC(n2ccn(-c3ccc4c(c3)Cn3cc(-c5ccc(C#N)cc5)cc3-c3nccn3-4)c2=O)C1', 'pIC50', '6.52 to 6.70'),
  ('N#Cc1ccc(-c2cc3n(c2)Cc2cc(N4C[C@@H](CNC5(CO)CC5)CC4=O)ccc2-n2ccnc2-3)cc1', 'pIC50', '6.30 to 6.40'),
  ('CN(CCO)C[C@H]1CC(=O)N(c2ccc3c(c2)Cn2cc(-c4ccc(C#N)cc4)cc2-c2nccn2-3)C1', 'pIC50', '6.70 to 7.00'),
  ('CN1CC2(CCN(c3ccc4c(c3)Cn3cc(-c5ccc(C#N)cc5)cc3-c3nccn3-4)C2=O)C1', 'pIC50', '> 7.30');

INPUT: Field request: pIC50 | item: CC(C)NC[C@H]1CC(=O)N(c2ccc3c(c2)Cn2cc(-c4ccc(C#N)cc4)cc2-c2nccn2-3)C1
OUTPUT: 6.70 to 7.00

INPUT: Field request: pIC50 | item: CN(C)CC1CC(=O)N(c2cc3c(cc2F)-n2ccnc2-c2cc(-c4ccc(C#N)cc4)cn2C3)C1 (stereo in doubt)
OUTPUT: 6.40 to 6.52

###

Entries and their pIC50 values follow.
biological target: MAPKAPK2 Recombinant Human Protein (Homo sapiens); experiment: MK2 kinase assay (Z'-LYTE kinase assay kit); conditions: inhibition of MK2 biochemical activity; 90 min incubation at room temperature
pIC50: −log10 of the molar value.

Here are 8 compounds together with their reported answers.
INSERT INTO measurements (compound, test_value) VALUES
  ('CN1CC(C)(CNC(=O)c2ccc3c(c2)Cn2cc(-c4ccc(C#N)cc4)cc2-c2nccn2-3)C1 [Example 121]', '7.00 to 7.30'),
  ('CC(C)(C)NC[C@H]1CC(=O)N(c2ccc3c(c2)Cn2cc(-c4ccc(C#N)cc4)cc2-c2nccn2-3)C1 [Example 13]', '> 7.30'),
  ('CC(C)(C)NC[C@@H]1CN(c2ccc3c(c2)Cn2cc(-c4ccc(C#N)cc4)cc2-c2nccn2-3)C(=O)O1 [Example 4]', '> 7.30'),
  ('CN1CC[C@H](NC(=O)c2ccc3c(c2)Cn2cc(-c4ccc(C#N)cc4)cc2-c2nccn2-3)C1 [Example 102]', '> 7.30'),
  ('N#Cc1ccc(-c2cc3n(c2)Cc2cc(N4C[C@@H](CN5CCC5)OC4=O)ccc2-n2ccnc2-3)cc1 [Example 5]', '> 7.30'),
  ('CCNC[C@H]1CC(=O)N(c2ccc3c(c2)Cn2cc(-c4ccc(C#N)cc4)cc2-c2nccn2-3)C1 [Example 10]', '> 7.30'),
  ('[2H]C([2H])([2H])N(CC1CCN(c2ccc3c(c2)Cn2cc(-c4ccc(C#N)cc4)cc2-c2nnc(C)n2-3)C1=O)C([2H])([2H])[2H] (centres unmarked) [Example 86]', '> 7.30'),
  ('N#Cc1ccc(-c2cc3n(c2)Cc2cc(N4C[C@@H](C5(N)CC5)CC4=O)ccc2-n2ccnc2-3)cc1 [Example 50]', '> 7.30');

INPUT: Field request: pIC50 | item: N#Cc1ccc(-c2cc3n(c2)Cc2cc(N4C[C@@H](CN5CCC5)CC4=O)ccc2-n2ccnc2-3)cc1 [Example 27]
OUTPUT: > 7.30

INPUT: Field request: pIC50 | item: Cc1nnc2n1-c1ccc(N3C[C@@H](CN4CCC4)CC3=O)cc1Cn1cc(-c3ccc(C#N)cc3)cc1-2 [Example 82]
OUTPUT: 7.00 to 7.30

INPUT: Field request: pIC50 | item: CN(C)C[C@H]1C[C@@]12CCN(c1ccc3c(c1)Cn1cc(-c4ccc(C#N)cc4)cc1-c1nccn1-3)C2=O [Example 48]
OUTPUT: 7.00 to 7.30

###

biological target: MAPKAPK2 Recombinant Human Protein (Homo sapiens); experiment: MK2 kinase assay (Z'-LYTE kinase assay kit); conditions: inhibition of MK2 biochemical activity; 90 min incubation at room temperature
experimental.endpoint: IC50

Here are 2 compounds together with their reported answers.
INSERT INTO assay_data (compound, experimental_endpoint, test_value) VALUES
  ('CN1CC(n2ccn(-c3ccc4c(c3)Cn3cc(-c5ccc(C#N)cc5)cc3-c3nccn3-4)c2=O)C1', 'IC50', '50 to 100 nM'),
  ('CN(C)[C@@H]1CCN(C(=O)Nc2ccc3c(c2)Cn2cc(-c4ccc(C#N)cc4)cc2-c2nccn2-3)C1', 'IC50', '< 50 nM');

INPUT: Field request: IC50 | item: Cc1nnc2n1CCN(C(=O)c1ccc3c(c1)Cn1cc(-c4ccc(C#N)cc4)cc1-c1nccn1-3)C2
OUTPUT: 200 to 300 nM

INPUT: Field request: IC50 | item: CN(C)CC1CCN(c2ccc3c(c2)Cn2cc(-c4ccc(C#N)cc4)cc2-c2nccn2-3)C1=O (stereo not shown)
OUTPUT: < 50 nM

###

molecular target: MAPKAPK2 Recombinant Human Protein (Homo sapiens, UniProt P49137); test: MK2 kinase assay (Z'-LYTE kinase assay kit); conditions: inhibition of MK2 biochemical activity; 90 min incubation at room temperature
Sequence (P49137 whole entry): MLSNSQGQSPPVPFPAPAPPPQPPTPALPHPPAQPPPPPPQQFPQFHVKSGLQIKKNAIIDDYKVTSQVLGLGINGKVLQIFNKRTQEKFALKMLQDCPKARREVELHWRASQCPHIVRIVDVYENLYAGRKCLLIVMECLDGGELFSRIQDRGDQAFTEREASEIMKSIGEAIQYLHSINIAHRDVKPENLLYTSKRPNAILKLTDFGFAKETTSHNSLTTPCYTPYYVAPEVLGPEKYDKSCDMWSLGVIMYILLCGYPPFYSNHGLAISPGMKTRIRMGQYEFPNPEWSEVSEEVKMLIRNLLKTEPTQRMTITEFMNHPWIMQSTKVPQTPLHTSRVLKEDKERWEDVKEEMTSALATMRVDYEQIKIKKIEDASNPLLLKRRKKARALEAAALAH
pIC50: −log10 of the molar value.
experimental.endpoint: pIC50

INSERT INTO assay_data (molecule, assayed_target, experimental_endpoint, test_value) VALUES
  ('CC(C)(N)C1CCN(c2ccc3c(c2)Cn2cc(-c4ccc(C#N)cc4)cc2-c2nccn2-3)C1=O (stereo not shown)', 'MAPKAPK2 Recombinant Human Protein (Homo sapiens, UniProt P49137)', 'pIC50', '7.00 to 7.30'),
  ('N#Cc1ccc(-c2cc3n(c2)Cc2cc(N4C[C@@H](CN)OC4=O)ccc2-n2ccnc2-3)cc1', 'MAPKAPK2 Recombinant Human Protein (Homo sapiens, UniProt P49137)', 'pIC50', '7.00 to 7.30'),
  ('CNC[C@@H]1CN(c2ccc3c(c2)Cn2cc(-c4ccc(C#N)cc4)cc2-c2nccn2-3)C(=O)O1', 'MAPKAPK2 Recombinant Human Protein (Homo sapiens, UniProt P49137)', 'pIC50', '> 7.30'),
  ('CC1(CN2C(=O)CN(c3ccc4c(c3)Cn3cc(-c5ccc(C#N)cc5)cc3-c3nccn3-4)C2=O)CNC1', 'MAPKAPK2 Recombinant Human Protein (Homo sapiens, UniProt P49137)', 'pIC50', '> 7.30'),
  ('CN1CC(N(C)C(=O)c2ccc3c(c2)Cn2cc(-c4ccc(C#N)cc4)cc2-c2nccn2-3)C1', 'MAPKAPK2 Recombinant Human Protein (Homo sapiens, UniProt P49137)', 'pIC50', '7.00 to 7.30'),
  ('CC(C)(N)CN1C(=O)CN(c2ccc3c(c2)Cn2cc(-c4ccc(C#N)cc4)cc2-c2nccn2-3)C1=O', 'MAPKAPK2 Recombinant Human Protein (Homo sapiens, UniProt P49137)', 'pIC50', '> 7.30');

Now look at this one.
INPUT: Field request: pIC50 | item: N#Cc1ccc(-c2cc3n(c2)Cc2cc(C(=O)N4CC(C#N)C4)ccc2-n2ccnc2-3)cc1
OUTPUT: > 7.30

###

Entries and their IC50 values follow.
test system: THP-1 cells; assay: THP-1 cell assay: LPS-stimulated pSer78-Hsp27 ELISA; format: cell-based; conditions: Homo sapiens, PMA-differentiated THP-1 cells, compound 60 min before 20 ng/mL LPS for 30 min

Here are 2 compounds together with their reported answers.
INSERT INTO results (compound, test_value) VALUES
  ('N#Cc1ccc(-c2cc3n(c2)Cc2cc(N4CC5(CNC5)CC4=O)ccc2-n2ccnc2-3)cc1', '1000 to 1500 nM'),
  ('N#Cc1ccc(-c2cc3n(c2)Cc2cc(N4C[C@@H](CN5CCC5)OC4=O)ccc2-n2ccnc2-3)cc1', '< 50 nM');

Now look at this one.
INPUT: State its IC50 on THP-1 cells: CC(C)N1CCC(C(=O)Nc2ccc3c(c2)Cn2cc(-c4ccc(C#N)cc4)cc2-c2nccn2-3)C1 (stereo not shown)
OUTPUT: 100 to 200 nM

###

target: MAPKAPK2 Recombinant Human Protein (Homo sapiens, UniProt P49137); assay: MK2 kinase assay (Z'-LYTE kinase assay kit); conditions: inhibition of MK2 biochemical activity; 90 min incubation at room temperature
experimental.endpoint: IC50

Here are 3 compounds together with their reported answers.
INSERT INTO assay_data (compound, test_value) VALUES
  ('CC(C)(N)C1CN(c2ccc3c(c2)Cn2cc(-c4ccc(C#N)cc4)cc2-c2nccn2-3)C(=O)O1 (stereo not shown)', '< 50 nM'),
  ('CN1CC(NC(=O)c2ccc3c(c2)Cn2cc(-c4ccc(C#N)cc4)cc2-c2nccn2-3)C1', '< 50 nM'),
  ('CN(C)C1CCC(C(=O)Nc2ccc3c(c2)Cn2cc(-c4ccc(C#N)cc4)cc2-c2nccn2-3)C1 (stereo not shown)', '50 to 100 nM');

Now look at this one.
INPUT: Field request: IC50 | item: CC(C)NC[C@H]1CC(=O)N(c2ccc3c(c2)Cn2cc(-c4ccc(C#N)cc4)cc2-c2nccn2-3)C1
OUTPUT: < 50 nM
